# Assay Summary: chemical genetic growth profiling, strain panel (AID 1159580);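 note: tested at 20 µM; growth read once vehicle control cultures reached saturation at 30 °C; 1 = growth at the plate median or of vehicle wells; lower values mean less growth of the strain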
# Experimental Context: S. cerevisiae deletion strains, growth OD, locus YNL248C, strain rpa49, stronger effect = lower value
In all, about 5,500 compounds went through this assay and about 2,000 (36%) were called active. Another 18% or so got no clear call; they are omitted. This is one part of the list.
# normalized growth per record follows
Could you respond with only the numeric value?

Compound: C[C@]12CCC3c4ccc(OC(=O)c5ccccc5)cc4CCC3C1CCC2=O (stereo not given in full)
normalized growth: 1.01

Query: What measured normalized growth goes with CCCCC(=O)O[C@]1(C(=O)CO)CCC2C3CCC4=CC(=O)CC[C@]4(C)C3[C@@H](O)C[C@@]21C (stereo not given in full) ?
Reply: 0.946

Query: Which normalized growth value is on record for NC(N)=NCCCCN=C(N)N ?
Reply: 0.967

Query: For the compound shown here, CC(=O)Oc1ccc2c(c1)CCC1C2CC[C@]2(C)C(=O)CCC12 (stereo not given in full) , give the reported normalized growth.
Reply: 1

Query: Name the reported normalized growth value associated with the compound COC(=O)[C@@H]1OC(=O)C2OC23[C@@]1(C)CCC1[C@@]2(C)CCC(=O)C(C)(C)C2C[C@@H](OC(C)=O)[C@]13C (stereo not given in full)
Reply: 1.01

Query: Reported normalized growth, compound O=c1[nH]c(=O)n(C2C[C@H](O)[C@@H](CO)O2)cc1C(F)(F)F (stereo not given in full) : ____
Reply: 0.926

Query: Suppose we examine the compound NC(N)=NCCN1CCCCCCC1 ; what normalized growth value has been reported?
Reply: 1.04

Query: Data request, read-out normalized growth, for C[C@@H]1CC[C@H]2C(C)(C)C3CC12CC[C@@]3(C)O (stereo not given in full)
Reply: 0.879

Query: Using the record for CCCn1c(=O)c2[nH]c(C3CCCC3)nc2n(CCC)c1=O , report its normalized growth.
Reply: 0.992

Query: Give its normalized growth value. Item: CC12CCC3C(=CCc4cc(O)ccc43)C1CCC2=O (stereo not given)
Reply: 0.908

====

# Assay Summary: chemical genetic growth profiling, strain panel (AID 1159580)
# Experimental Context: S. cerevisiae deletion strains, growth OD, locus YNL222W, strain SSU72, stronger effect = lower value
In all, about 5,500 compounds went through this assay and about 2,000 (36%) were called active. Roughly 18% stayed inconclusive and do not appear here. The list shows a part of the results.
Parameter: normalized growth
Respond using a number only.

// worked examples, normalized growth included
Molecule: Clc1ccccc1-c1csc(-c2cccnc2)n1
Result: 0.916

Molecule: COc1ccc2c(c1)CCc1sc(NC(=O)c3ccco3)nc1-2
Result: 0.957

Molecule: CC1=CC(=O)N(c2ccc(F)c(Cl)c2)C1=O
Result: 0.973

Molecule: CC1=CC(=O)N(c2ccc(OC(F)(F)F)cc2)C1=O
Result: 0.864

Molecule: N/C(=N/O)c1ccc(Oc2ccc(C3SCCS3)cc2)c([N+](=O)[O-])c1
Result: 0.979

Query: GET /values?readout=normalized growth&item= O=S(=O)(NCc1cc(Cl)cc(Cl)c1)c1cc(C(F)(F)F)cc(C(F)(F)F)c1
Reply: 0.996

====

# Assay Summary: chemical genetic growth profiling, strain panel (AID 1159580)
# Experimental Context: S. cerevisiae deletion strains, growth OD, locus YNL322C, strain KRE1, stronger effect = lower value
Among all 5,500 compounds or so, about 2,000 (36%) were called active. Inconclusive results (about 18%) are left out. The list shows a part of the results.
Parameter: normalized growth
Please reply with the value in numeric form only.

# count of solved cases: 6
Molecule: N/C(=N/OC(=O)Nc1ccccc1)c1ccc(C2SCCS2)cc1
Result: 0.991
--
Molecule: c1ccc(-c2csc(-c3cccnc3)n2)cc1
Result: 0.94
--
Molecule: O/N=C(/CNC(c1ccccc1)(c1ccccc1)c1ccccc1)c1ccccc1
Result: 0.985
--
Molecule: CC12CCC3C(=CCc4cc(O)ccc43)C1CCC2=O (stereo unspecified)
Result: 0.988
--
Molecule: CCCCCC(O)c1cccc(OCc2ccc3ccccc3n2)c1 (stereo unspecified)
Result: 0.972
--
Molecule: Cc1onc2c(=O)n(-c3ccccc3)nc(-c3ccccc3)c12
Result: 0.929

Query: Which normalized growth value belongs to CC1(C)C(=O)N(CCN2CCC(C(=O)c3ccc(F)cc3)CC2)c2ccccc21 ?
Reply: 1

Query: Look at this molecule and give its reported normalized growth. C[C@]12CCC3c4ccc(O)cc4CCC3C1CCC2=O (stereo partly specified)
Reply: 1.01

Query: For COc1ccccc1N1CCN(CCCCNS(=O)(=O)c2cccc3c(N(C)C)cccc23)CC1 , what is its reported normalized growth?
Reply: 0.951

Query: Consider the molecule shown here: COc1ccc(-c2cc(=O)c3c(OC)cc(OC)cc3o2)cc1 What is its recorded normalized growth?
Reply: 1.01

====

# Assay Summary: chemical genetic growth profiling, strain panel (AID 1159580);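 note: tested at 20 µM; growth read once vehicle control cultures reached saturation at 30 °C; 1 = growth at the plate median or of vehicle wells; lower values mean less growth of the strain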
# Experimental Context: S. cerevisiae deletion strains, growth OD, locus YML032C, strain rad52, stronger effect = lower value
The campaign covered roughly 5,500 compounds. About 2,000 (36%) were called active. About 18% were inconclusive and are not listed. The list shows a part of the results.
Label rule met when normalized growth is strictly below 1; otherwise label rule not met.

Query: Strictly below 1 in normalized growth? C[C@]12CCC3c4ccc(O)cc4CCC3C1CCC2=O (stereo not given in full)
Reply: rule met

Query: Threshold test, normalized growth < 1: C[C@]12CCC3c4ccc(OC(=O)c5ccccc5)cc4CCC3C1CCC2=O (stereo not given in full)
Reply: rule not met

Query: Is normalized growth of CC12CCC3C(=CCc4cc(O)ccc43)C1CCC2=O (stereo not given) strictly below 1?
Reply: rule met

====

Listed here are compounds together with their documented normalized growth.
# Assay Summary: chemical genetic growth profiling, strain panel (AID 1159580);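 note: tested at 20 µM; growth read once vehicle control cultures reached saturation at 30 °C; 1 = growth at the plate median or of vehicle wells; lower values mean less growth of the strain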
# Experimental Context: S. cerevisiae deletion strains, growth OD, locus YKL068W, stronger effect = lower value
In all, about 5,500 compounds went through this assay and about 2,000 (36%) were called active. Inconclusive results (about 18%) are left out. This is one part of the list.
Keep it simple and answer with nothing but the number.

Compound: CC(=O)OC1CC(OC(C)=O)C2(C)C(CC(OC(C)=O)C3(C)C2CCC2(C)C(c4ccoc4)OC(=O)C4OC423)C1(C)C (centres undefined)
normalized growth: 1

Query: Any idea what its normalized growth is? The compound is COc1cc(C)c2c(=O)cc(-c3ccccc3)oc2c1
Reply: 0.966

Query: Name the recorded normalized growth for CC(=O)O[C@@H]1CC2C(C)(C)[C@H](O)CC[C@]2(C)C2CC[C@@]3(C)[C@H](c4ccoc4)OC(=O)[C@H]4O[C@]43[C@@]21C (some centres undefined) .
Reply: 0.996

Query: // normalized growth lookup, key: CCCn1c(=O)c2[nH]c(C3CCCC3)nc2n(CCC)c1=O
Reply: 0.965

Query: What value of normalized growth has been recorded for this entry: FC(F)(F)c1cccc(N2CCNCC2)c1
Reply: 0.997

Query: Would you mind telling me what normalized growth value was observed for CC(=O)O[C@@H]1CC2C(C)(C)C(=O)C3OC3[C@]2(C)C2CC[C@@]3(C)[C@H](c4ccoc4)OC(=O)C4OC43[C@@]21C (some centres undefined) ?
Reply: 1.01

====

# Assay Summary: chemical genetic growth profiling, strain panel (AID 1159580);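 note: tested at 20 µM; growth read once vehicle control cultures reached saturation at 30 °C; 1 = growth at the plate median or of vehicle wells; lower values mean less growth of the strain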
# Experimental Context: S. cerevisiae deletion strains, growth OD, locus YDL005C, strain med2
About 2,000 (36%) of roughly 5,500 compounds were called active. Not shown: some 18% with an inconclusive outcome. Rule as the data show it: active = normalized growth mostly below about 0.91 (no sharp cut-off); inconclusive = no clear call, values can overlap the other calls; inactive = mostly above about 0.92. The list shows a part of the results. Where a SMILES comes first, the peptide text is derived from it.
# output must be one of 1 (active), -1 (inactive)

Compound: O=C1CCCN1CC#CCN1CCCC1
Label Value: -1

Query: What was the test verdict on C[C@]12CCC3c4ccc(O)cc4CCC3C1CCC2=O (some centres not stated) ?
Reply: -1

Query: Look up the recorded call for CC(=O)N[C@@H](CCC(=O)O)C(=O)O in this test.
Reply: -1

Query: # fetch the recorded call for C[C@]12CCC3c4ccc(OC(=O)c5ccccc5)cc4CCC3C1CCC2=O (some centres not stated) here
Reply: -1

Query: Hi, do you know how NC(=O)CS(=O)C(c1ccccc1)c1ccccc1 (configuration not stated) came out in this test?
Reply: -1

Query: Please state the recorded outcome for this compound: CC(=O)O[C@@H]1CC2C(C)(C)[C@H](O)CC[C@]2(C)C2CC[C@@]3(C)[C@H](c4ccoc4)OC(=O)C4OC43[C@@]21C (some centres not stated)
Reply: -1

Query: Which result was noted for this compound in the test: CN(C/C=C/C#CC(C)(C)C)Cc1cccc2ccccc12
Reply: 1

Query: Called result for COC1C=CC23c4cc5c(cc4CN(CC2O)[C@@H]3C1)OCO5 (some centres not stated)
Reply: -1

Query: GET /call?item= C=NC(C(=O)NC1C(=O)N2C1SC(C)(C)C2C(=O)O)c1ccccc1 (configuration not stated) returns the recorded outcome of this test.
Reply: -1

Query: Entry Cc1onc(-c2ccccc2)c1-c1ccc(S(N)(=O)=O)cc1 : call = ?
Reply: -1

Query: What did the test return for CCCn1c(=O)c2[nH]c(C3CCCC3)nc2n(CCC)c1=O ?
Reply: -1

Query: // param item: COP(=S)(OC)Oc1ccc(Sc2ccc(OP(=S)(OC)OC)cc2)cc1 ; yields the recorded call
Reply: -1

Query: Which result was noted for this compound in the test: CC(=O)O[C@H]1C[C@@H](OC(C)=O)C(C)(C)C2C[C@@H](OC(C)=O)[C@]3(C)C(CC[C@@]4(C)[C@H](c5ccoc5)OC(=O)[C@H]5O[C@]543)[C@]21C (some centres not stated)
Reply: -1

Query: What outcome does the record of this test show for CC(=O)O[C@@H]1CC2C(C)(C)[C@H](O)C=C[C@]2(C)C2CC[C@@]3(C)[C@H](c4ccoc4)OC(=O)C4OC43[C@@]21C (some centres not stated) ?
Reply: -1

Query: Entry CC1(C)C(=O)[C@@H]2O[C@@H]2[C@@]2(C)C1C[C@@H](O)[C@]1(C)C2CC[C@@]2(C)[C@H](c3ccoc3)OC(=O)C3OC321 (some centres not stated) : call = ?
Reply: -1

Query: Please let me know the test result on file for COc1ccc(-c2oc3cc(OC)c(OC)c(OC)c3c(=O)c2OC)cc1OC .
Reply: -1

Query: Dear all, I need the recorded test outcome for CC(=O)O[C@H]1CC[C@@]2(C)C(C[C@@H](OC(C)=O)[C@]3(C)C2CC[C@@]2(C)[C@H](c4ccoc4)OC(=O)[C@H]4O[C@]423)C1(C)C (some centres not stated) , thank you.
Reply: -1

Query: Test call, this compound: C[C@@H]1CC[C@H]2C(C)(C)C3CC12CC[C@@]3(C)O (some centres not stated)
Reply: 1

Query: Each compound tested received a call. Report the one for COc1ccc(-c2oc3cc(OC)c(OC)c(OC)c3c(=O)c2OC)cc1 .
Reply: -1

Query: Can you look up the reported call for CC12CCC3C(=CCc4cc(O)ccc43)C1CCC2=O (configuration not stated) for me?
Reply: -1

Query: Status in this test for Fc1ccc([C@@H]2CCNC[C@H]2COc2ccc3c(c2)OCO3)cc1 ?
Reply: -1

Query: Which outcome was entered for the compound CC(=O)N[C@@H](CC(=O)O)C(=O)N[C@@H](CCC(=O)O)C(=O)O (Ac-Asp-Glu-OH) in this test?
Reply: -1

Query: Kindly provide the recorded test outcome for the following compound: COC(=O)[C@H](c1ccccc1Cl)N1CCc2sccc2C1
Reply: -1
